IC50 for assorted molecules
TARGET OF ASSAY: Arachidonate 5-lipoxygenase (Bos taurus)
Sequence (Q9BEG3 whole entry): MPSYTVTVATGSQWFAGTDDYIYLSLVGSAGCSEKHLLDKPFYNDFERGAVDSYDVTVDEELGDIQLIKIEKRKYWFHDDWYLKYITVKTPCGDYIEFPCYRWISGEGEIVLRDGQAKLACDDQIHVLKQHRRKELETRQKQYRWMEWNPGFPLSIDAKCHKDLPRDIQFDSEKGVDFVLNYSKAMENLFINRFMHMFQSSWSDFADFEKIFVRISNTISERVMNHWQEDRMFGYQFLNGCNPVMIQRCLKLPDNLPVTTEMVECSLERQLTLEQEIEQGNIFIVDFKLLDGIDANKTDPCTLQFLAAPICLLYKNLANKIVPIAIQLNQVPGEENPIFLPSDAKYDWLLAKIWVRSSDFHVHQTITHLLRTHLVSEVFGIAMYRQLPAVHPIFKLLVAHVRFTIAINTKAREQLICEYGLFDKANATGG
PROTOCOL DESCRIPTION: Inhibition of 5-lipoxygenase in bovine polymorphonuclear leukocytes

O=C1c2c(O)cccc2Cc2ccc(CCCc3ccccc3)c(O)c21    11 µM
O=C1c2c(O)cccc2Cc2ccc(CCc3ccccc3)c(O)c21    > 30 µM
O=C(c1ccccc1)c1ccc2c(c1O)C(=O)c1c(O)cccc1C2    18 µM
O=C(c1ccccc1)c1cc(O)c2c(c1)Cc1cccc(O)c1C2=O    > 30 µM
COc1ccc(OC)c(Cc2ccc3c(c2O)C(=O)c2c(O)cccc2C3)c1    > 30 µM
COc1ccc(Cc2ccc3c(c2O)C(=O)c2c(O)cccc2C3)c(OC)c1    > 30 µM
COc1ccc(Cc2cc(O)c3c(c2)Cc2cccc(O)c2C3=O)cc1    > 30 µM

### Prompt Please report the recorded IC50 for "COc1cc(CCCc2ccc3c(c2O)C(=O)c2c(O)cccc2C3)cc(OC)c1OC" .
### Response 6 µM

----------
Test system: Liposome
PROTOCOL DESCRIPTION: Inhibition of 2,2'-azobis(2-aminopropane)hydrochloride (AAPH) induced lipid peroxidation in bovine brain phospholipid liposomes
Format: functional, subcellular, Bos taurus
READOUT: IC50 (µM)

O=C1c2c(O)cccc2Cc2ccc(Cc3ccccc3)c(O)c21    98
Cc1ccc(C(=O)c2cc(O)c3c(c2)Cc2cccc(O)c2C3=O)cc1    40
O=C1c2c(O)cccc2Cc2ccc(Cc3ccc(Cl)cc3)c(O)c21    150
O=C1c2c(O)cccc2Cc2cc(Cc3ccccc3)cc(O)c21    64
O=C1c2c(O)cccc2Cc2ccc(CCCc3cc(O)c(O)c(O)c3)c(O)c21    5
O=C1c2c(O)cccc2Cc2cccc(O)c21    79

a. O=C1c2c(O)cccc2Cc2ccc(Cc3cc(O)ccc3O)c(O)c21
b. O=C1c2c(O)cccc2Cc2ccc(CCCc3ccc(O)cc3)c(O)c21
c. O=C1c2c(O)cccc2Cc2ccc(CCCCc3ccccc3)c(O)c21
d. O=C1c2c(O)cccc2Cc2cc(Cc3ccc(O)cc3O)cc(O)c21
e. O=C1c2c(O)cccc2Cc2cc(Cc3cc(O)ccc3O)cc(O)c21
### Prompt Task field, ranking: reported IC50, descending order. Please, when replying, give the labels in the order that was requested.
### Response c, b, d, a, e
(c: 112 µM, b: 50 µM, d: 16 µM, a: 7 µM, e: 3 µM)

I. O=C(c1ccccc1)c1ccc2c(c1O)C(=O)c1c(O)cccc1C2
II. O=C(O)c1ccc(Cc2ccc3c(c2O)C(=O)c2c(O)cccc2C3)cc1
### Prompt Endpoint returns whichever of I and II has the numerically higher IC50. Record your answer as the label of the chosen record.
### Response II

----------
Test system: Liposome
PROTOCOL DESCRIPTION: Inhibition of 2,2'-azobis(2-aminopropane)hydrochloride (AAPH) induced lipid peroxidation in bovine brain phospholipid liposomes
Format: functional, subcellular, Bos taurus
pIC50: −log10 of the molar value.
READOUT: pIC50

Sample records with pIC50:
COc1ccc(Cc2cc(O)c3c(c2)Cc2cccc(O)c2C3=O)cc1    4.48
O=C1c2c(O)cccc2Cc2ccc(CCc3ccccc3)c(O)c21    3.96
CC(Cc1ccc(O)c(O)c1)C(C)Cc1ccc(O)c(O)c1 (stereo unspecified) [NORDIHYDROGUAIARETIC ACID]    5.70

a. O=C1c2c(O)cccc2Cc2ccc(Cc3ccccc3O)c(O)c21
b. O=C1c2c(O)cccc2Cc2cc(Cc3ccc(O)cc3)cc(O)c21
c. O=C1c2c(O)cccc2Cc2ccc(CCCc3ccccc3)c(O)c21
d. O=C(O)c1ccccc1Cc1ccc2c(c1O)C(=O)c1c(O)cccc1C2
### Prompt Task field, ranking: reported pIC50, descending order. Please, when replying, give the labels in the order that was requested.
### Response b, a, d, c

P. O=C(c1ccccc1)c1cc(O)c2c(c1)Cc1cccc(O)c1C2=O
Q. O=C1c2c(O)cccc2Cc2ccc(Cc3ccc(O)cc3O)c(O)c21
### Prompt Of P versus Q , which is the one with smaller reported pIC50? Record your answer as the label of the chosen record.
### Response P
(P: 4.40, Q: 4.80)

a. O=C1c2c(O)cccc2Cc2ccc(Cc3ccc(O)cc3)c(O)c21
b. O=C1c2c(O)cccc2Cc2cc(Cc3ccc(O)c(O)c3)cc(O)c21
### Prompt Endpoint returns whichever of a and b has the numerically higher pIC50. Record your answer as the label of the chosen record.
### Response b
(b: 5.40, a: 4.37)
